Parameter pIC50: see the listing below.
# assayed_system: human LOXL2 (Homo sapiens)
# Construct: secreted protein in 10-20x concentrated conditioned media
# Sequence (Q9Y4K0 26-774): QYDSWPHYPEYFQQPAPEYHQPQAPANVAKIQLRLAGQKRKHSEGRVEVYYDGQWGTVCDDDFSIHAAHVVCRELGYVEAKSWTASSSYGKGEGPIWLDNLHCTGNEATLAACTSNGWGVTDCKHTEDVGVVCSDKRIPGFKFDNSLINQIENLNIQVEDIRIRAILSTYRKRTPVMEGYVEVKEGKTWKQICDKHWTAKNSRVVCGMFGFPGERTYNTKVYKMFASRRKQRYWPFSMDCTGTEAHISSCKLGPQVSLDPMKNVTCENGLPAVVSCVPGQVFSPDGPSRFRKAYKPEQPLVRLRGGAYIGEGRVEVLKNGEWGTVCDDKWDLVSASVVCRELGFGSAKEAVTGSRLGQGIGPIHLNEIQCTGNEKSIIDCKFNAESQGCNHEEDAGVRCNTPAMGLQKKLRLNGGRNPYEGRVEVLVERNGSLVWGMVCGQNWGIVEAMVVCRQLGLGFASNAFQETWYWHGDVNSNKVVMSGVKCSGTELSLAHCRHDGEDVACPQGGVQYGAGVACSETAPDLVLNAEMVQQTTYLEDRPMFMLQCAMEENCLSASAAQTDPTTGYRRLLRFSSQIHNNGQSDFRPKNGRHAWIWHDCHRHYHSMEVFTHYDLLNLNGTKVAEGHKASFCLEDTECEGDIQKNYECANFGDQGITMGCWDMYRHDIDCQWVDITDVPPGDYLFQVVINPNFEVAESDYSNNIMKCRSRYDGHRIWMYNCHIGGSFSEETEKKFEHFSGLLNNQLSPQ
# procedure_text: Human LOXL2 Amine Oxidase Activity Assay (Amplex Red fluorescence)
# reported_conditions: concentrated conditioned media from CHO cells stably expressing human LOXL2, test compound incubated 2 h at 37° C., pH8, DAP substrate
pIC50: −log10 of the molar value. Structures can show the parent of a compound that is named as a salt.

NCc1cc(=O)c2ccc(N3CCCc4ccccc43)cc2o1 [Compound 1-42, hydrochloride]    > 6.52
COC(=O)[C@@H]1CCN(C(=O)c2ccc3oc(CN)cc(=O)c3c2)C1 [Compound 1-24, hydrochloride]    6.00 to 6.52
COc1cc2c(=O)cc(CN)oc2cc1OCc1ccccc1 [Compound 1-69, hydrochloride]    > 6.52
NCc1cc(=O)c2cc(-c3cnc4ccccc4c3)ccc2o1 [Compound 1-9, hydrochloride]    > 6.52
C#CCOc1cccc2c(=O)cc(CN)oc12 [Compound 1-53, hydrochloride]    6.00 to 6.52

Task: Would you mind telling me what pIC50 value was observed for Cn1cc(-c2ccc3oc(CN)cc(=O)c3c2)nn1 [Compound 1-13, hydrochloride] ?
Output: > 6.52

Task: // query pIC50 value for entry CN(C)C(=O)Cn1cc(-c2ccc3oc(CN)cc(=O)c3c2)nn1 [Compound 1-17, hydrochloride]
Output: > 6.52

Task: Any idea what pIC50 was measured for NCc1cc(=O)c2ccc(-n3cccn3)cc2o1 [Compound 1-11, hydrochloride] ?
Output: > 6.52

Task: What value of pIC50 has been recorded for this entry: NCc1cc(=O)c2cc(C(=O)NCCS(N)(=O)=O)ccc2o1 [Compound 1-22, hydrochloride]
Output: 6.00 to 6.52

Task: Consider the compound NCc1cc(=O)c2cc(N3CC[C@H](O)C3)ccc2o1 [Compound 1-20, hydrochloride] and give its measured pIC50.
Output: 6.00 to 6.52

Where do the numbers come from? From patent US20180215727A1.
